- target.system: TRPC6 channel (Homo sapiens)
- Sequence (Q9Y210 1-931): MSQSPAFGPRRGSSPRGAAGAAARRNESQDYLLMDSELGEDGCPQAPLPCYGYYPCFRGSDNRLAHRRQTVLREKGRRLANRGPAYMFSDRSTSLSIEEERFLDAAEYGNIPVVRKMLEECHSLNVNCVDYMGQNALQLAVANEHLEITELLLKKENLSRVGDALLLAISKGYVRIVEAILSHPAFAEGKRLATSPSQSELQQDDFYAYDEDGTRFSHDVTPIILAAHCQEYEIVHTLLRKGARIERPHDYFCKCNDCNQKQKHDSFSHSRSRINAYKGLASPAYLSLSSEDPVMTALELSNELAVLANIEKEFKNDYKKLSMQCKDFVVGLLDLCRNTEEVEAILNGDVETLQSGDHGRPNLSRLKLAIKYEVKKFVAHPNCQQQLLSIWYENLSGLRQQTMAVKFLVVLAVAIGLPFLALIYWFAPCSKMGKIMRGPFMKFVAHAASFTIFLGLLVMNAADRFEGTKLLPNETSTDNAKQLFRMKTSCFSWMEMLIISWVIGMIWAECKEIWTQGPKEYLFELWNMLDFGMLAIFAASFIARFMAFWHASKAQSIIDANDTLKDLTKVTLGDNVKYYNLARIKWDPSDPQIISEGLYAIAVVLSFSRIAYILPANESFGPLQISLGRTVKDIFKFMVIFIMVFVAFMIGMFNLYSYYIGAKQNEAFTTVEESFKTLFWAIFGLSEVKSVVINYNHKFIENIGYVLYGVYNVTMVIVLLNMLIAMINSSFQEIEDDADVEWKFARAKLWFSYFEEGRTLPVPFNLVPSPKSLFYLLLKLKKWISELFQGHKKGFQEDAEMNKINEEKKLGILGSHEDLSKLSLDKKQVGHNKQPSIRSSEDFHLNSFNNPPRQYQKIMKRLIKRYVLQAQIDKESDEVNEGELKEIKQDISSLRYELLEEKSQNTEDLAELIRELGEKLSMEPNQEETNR
- protocol.notes: IC50 on TRPC6 channel-mediated Ca2+ entry in HEK293hTRPC6 cells
- setup.conditions: HEK293hTRPC6, OAG 80 μM, Ca2+ 2 mM
- Method: The half maximal inhibitory concentrations (IC50) of the compounds of the present invention (as exemplified by Compound 1-1 obtained in Example 1) on TRPC6 channel-mediated Ca^2+ entry were determined using HEK293hTRPC6, a tool cell overexpressing TRPC6 protein. Methods were as follows: HEK293hTRPC6, a tool cell overexpressing TRPC6 protein, was established in the same manner as in Example 7. […]
measured.endpoint: IC50 (µM)
Just the number in µM, nothing appended.

Bench note: what IC50 did Cn1c(C(=O)NCCC(=O)O)cc2ccccc21 [reference compound] show?
0.0241

Bench note: what IC50 did CC(=O)OCCCNC(=O)c1c(C=O)c2ccccc2n1C [compound 1-1] show?
0.0114
